Each item that follows carries a reported IC50.
tested on: A-673 cells; assay: Cell viability, crystal violet staining; assay type: cell-based; details: Homo sapiens, A673, cell viability, read-out: A-673 IC50 (nM) Cell viability
measurement.name: IC50

* CN(c1ccc(-c2ccc(-c3ccn(CF)c(=O)c3)cc2O)nn1)[C@H]1C[C@]2(C)CC[C@](C)(C1)N2 | 10 to 100 nM
* CN(c1ccc(-c2ccc(-c3cnn(C(F)(F)F)c3)cc2O)nn1)[C@H]1C[C@]2(C)CC[C@](C)(C1)N2 | > 1000 nM
* Oc1cc(-c2cn[nH]c2)ccc1-c1ccc(O[C@@H]2C[C@H]3CC[C@@H](C2)N3)nn1 | 101 to 250 nM
* CN(c1ccc(-c2cc(F)c(-c3ccn(C)c(=O)c3)cc2O)nn1)[C@H]1C[C@]2(C)CC[C@](C)(C1)N2 | < 10 nM
* Oc1cc(-c2cn[nH]c2)ccc1-c1ccc(O[C@@H]2C[C@H]3COC[C@@H](C2)N3)nn1 | 501 to 1000 nM
* CN(c1ccc(-c2ccc(-c3cn[nH]c3)cc2O)nn1)[C@H]1C[C@H]2CC[C@@H](C1)N2 | > 1000 nM
* CN(c1ccc(-c2ccc(-n3cnc(C#N)c3)cc2O)nn1)[C@H]1C[C@]2(C)CC[C@](C)(C1)N2 | 251 to 500 nM
* CN(c1ccc(-c2ccc(-n3cc(C#N)cn3)cc2O)nn1)[C@H]1C[C@]2(C)CC[C@](C)(C1)N2 | 101 to 250 nM
* COc1ccc2cc(-c3ccc(N(C)[C@@H]4C[C@H]5CC[C@@H](C4)N5)nn3)c(O)cc2c1 | 101 to 250 nM
* CN(c1ccc(-c2ccc(-n3ccc(C#N)c3)cc2O)nn1)[C@H]1C[C@]2(C)CC[C@](C)(C1)N2 | 10 to 100 nM
* COc1cc(-c2ccc(-c3ccc(N(C)[C@H]4C[C@]5(C)CC[C@](C)(C4)N5)nn3)c(O)c2)cc(F)n1 | 10 to 100 nM
* CN(c1ccc(-c2cc3ccc(OCF)cc3cc2O)nn1)[C@@H]1C[C@H]2CC[C@@H](C1)N2 | 10 to 100 nM
* Oc1cc(-c2cn[nH]c2)ccc1-c1ccc(N2CCC23CCNCC3)nn1 | > 1000 nM
* CN(c1ccc(-c2ccc(-c3cn[nH]c3)cc2O)nn1)[C@H]1C[C@H]2COC[C@@H](C1)N2 | > 1000 nM
